Target System: Alpha-2A adrenergic receptor (Homo sapiens, UniProt P08913)
Sequence (P08913 whole entry): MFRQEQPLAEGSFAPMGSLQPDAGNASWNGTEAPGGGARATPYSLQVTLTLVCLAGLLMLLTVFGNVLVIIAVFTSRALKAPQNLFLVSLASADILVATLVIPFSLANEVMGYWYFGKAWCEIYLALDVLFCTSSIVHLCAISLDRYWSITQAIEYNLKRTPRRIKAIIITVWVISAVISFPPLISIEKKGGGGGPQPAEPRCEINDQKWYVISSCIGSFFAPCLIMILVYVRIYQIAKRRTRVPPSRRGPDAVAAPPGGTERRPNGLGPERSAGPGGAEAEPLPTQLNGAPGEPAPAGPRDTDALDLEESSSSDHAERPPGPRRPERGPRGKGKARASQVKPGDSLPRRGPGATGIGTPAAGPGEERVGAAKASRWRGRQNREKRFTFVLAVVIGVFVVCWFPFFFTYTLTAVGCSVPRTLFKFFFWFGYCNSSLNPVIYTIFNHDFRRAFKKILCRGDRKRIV
Parameter: Ki (nM)
// return numeric value only (unit: nM, not printed)

Request: What measured Ki goes with `CCC1(c2cnc[nH]2)Cc2ccccc2C1` ?
Result: 0.33

Request: What measured Ki goes with O=C1c2ccccc2CCC1CNCCc1ccc(O)cc1 (stereo not drawn) ?
Result: 0.93

Request: What measured Ki goes with CS(=O)(=O)NCCN(C1CCN2CCc3ccccc3C2C1)S(C)(=O)=O (stereo not drawn) ?
Result: 11
